MEASUREMENT_TARGET: T1, CLDN6 endogenously expressed by human cancer cell lines (ARK2, OVCA429) (human, UniProt P56747 1-220)
T1 construct: Untagged endogenous protein; also called Endogenous CLDN6+
T1 sequence: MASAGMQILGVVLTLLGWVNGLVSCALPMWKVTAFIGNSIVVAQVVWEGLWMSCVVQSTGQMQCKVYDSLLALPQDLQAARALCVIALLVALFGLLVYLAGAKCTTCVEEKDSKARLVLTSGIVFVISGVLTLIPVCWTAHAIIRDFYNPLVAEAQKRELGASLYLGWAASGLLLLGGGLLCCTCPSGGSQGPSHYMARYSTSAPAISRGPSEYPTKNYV
ASSAY_INFO: FACS, 0.3 µg Ab, ARK2 cells
MEASURED_ATTRIBUTE: FACS fluorescence
Just the number, please, no unit after it.

A selection of reference data follows.
{"BINDER": "AB3-5 (antibody, V domains shown, also called Humanized AB 3-5) VH: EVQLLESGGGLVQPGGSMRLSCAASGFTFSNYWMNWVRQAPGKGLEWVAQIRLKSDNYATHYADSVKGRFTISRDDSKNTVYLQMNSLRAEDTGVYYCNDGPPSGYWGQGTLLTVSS VL: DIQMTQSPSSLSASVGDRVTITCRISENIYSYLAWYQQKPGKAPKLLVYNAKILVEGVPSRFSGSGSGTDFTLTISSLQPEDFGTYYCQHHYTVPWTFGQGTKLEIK", "FACS fluorescence": 1280}
{"BINDER": "AB4-11 (antibody, V domains shown, Humanized; also called Humanized AB 4-11) VH: QVQLVQSGAEVKKPGASVKMSCKASGYTFTSYTMHWIRQAPGQGLEWIGYINPSSTYTHYIKKFKDRATLTADKSTSTAYMELSSLRSEDTAVYYCSRGELGGFAYWGQGTLVTVSS VL: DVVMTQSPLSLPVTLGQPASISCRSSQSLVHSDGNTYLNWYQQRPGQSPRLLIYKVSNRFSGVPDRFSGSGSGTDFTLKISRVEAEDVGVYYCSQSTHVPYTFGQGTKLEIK", "FACS fluorescence": 6390}

Note: attention shifts to another entry.
Q: For the binder shown here, AB18-4 (antibody, V domains shown, also called Humanized AB 18-4) VH: QVQLVQSGAEVKKPGASVKVSCKASGYSFTGYNMNWVRQAPGQGLEWMGNIDPYYGGSTYAQKFQGRVTMTVDTSTSTVYMELSSLRSEDTAVYYCARERSGYVFSAMDYWGQGTLVTVSS VL: DIVMTQSPDSLAVSLGERVTMNCKSSQSVLFSSNQKNYLAWYQQKPGQPPKLLIYWASTRESGVPDRFSGSGSGTDFTLTISSVQAEDVAVYYCHQYLSSRTFGQGTKLEIK , give the reported FACS fluorescence.
Ans: 1130
